target: Factor X, P00742
Sequence (P00742 whole entry, looked up): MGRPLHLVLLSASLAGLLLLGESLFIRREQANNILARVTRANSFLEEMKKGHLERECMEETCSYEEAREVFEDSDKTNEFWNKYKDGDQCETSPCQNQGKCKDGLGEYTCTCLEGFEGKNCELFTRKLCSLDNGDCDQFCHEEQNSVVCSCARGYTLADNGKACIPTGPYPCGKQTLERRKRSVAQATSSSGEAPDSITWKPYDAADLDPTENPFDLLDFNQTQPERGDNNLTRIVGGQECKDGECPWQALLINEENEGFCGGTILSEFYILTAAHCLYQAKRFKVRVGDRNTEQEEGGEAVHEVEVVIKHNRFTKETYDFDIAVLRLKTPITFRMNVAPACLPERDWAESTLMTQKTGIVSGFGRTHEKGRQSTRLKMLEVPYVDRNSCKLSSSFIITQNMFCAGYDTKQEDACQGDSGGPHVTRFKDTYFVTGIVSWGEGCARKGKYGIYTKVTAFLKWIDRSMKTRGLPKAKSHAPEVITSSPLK

{"protein": "FIXa R318Y/R338E/Y345A/R403E/E410N (protein) chain 1: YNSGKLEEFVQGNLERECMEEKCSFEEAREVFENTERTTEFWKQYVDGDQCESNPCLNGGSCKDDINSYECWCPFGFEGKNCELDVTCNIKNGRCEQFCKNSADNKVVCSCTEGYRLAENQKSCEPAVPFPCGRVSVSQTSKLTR chain 2: VVGGEDAKPGQFPWQVVLNGKVDAFCGGSIVNEKWIVTAAHCVETGVKITVVAGEHNIEETEHTEQKRNVIRIIPHHNYNAAINKYNHDIALLELDEPLVLNSYVTPICIADKEYTNIFLKFGSGYVSGWGRVFHKGYSALVLQYLRVPLVDRATCLESTKFTIANNMFCAGFHEGGRDSCQGDSGGPHVTEVEGTSFLTGIISWGEECAMKGKYGIYTKVSEYVNWIKNKTKLT", "kcat/KM": "8.3e+07 M⁻¹ s⁻¹"}
{"protein": "FIXa Y155F/R318Y/R338E/T343R/R403E/E410N (protein) chain 1: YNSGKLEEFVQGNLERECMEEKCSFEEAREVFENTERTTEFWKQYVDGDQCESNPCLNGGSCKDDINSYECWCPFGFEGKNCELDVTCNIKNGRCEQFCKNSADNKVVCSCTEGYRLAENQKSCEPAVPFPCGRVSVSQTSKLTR chain 2: VVGGEDAKPGQFPWQVVLNGKVDAFCGGSIVNEKWIVTAAHCVETGVKITVVAGEHNIEETEHTEQKRNVIRIIPHHNYNAAINKYNHDIALLELDEPLVLNSYVTPICIADKEYTNIFLKFGSGYVSGWGRVFHKGYSALVLQYLRVPLVDRATCLESTKFRIYNNMFCAGFHEGGRDSCQGDSGGPHVTEVEGTSFLTGIISWGEECAMKGKYGIYTKVSEYVNWIKNKTKLT", "kcat/KM": "3e+08 M⁻¹ s⁻¹"}
{"protein": "FIXa-D85N/K228N/R318Y/R338E/R403E/E410N (protein) chain 1: YNSGKLEEFVQGNLERECMEEKCSFEEAREVFENTERTTEFWKQYVDGDQCESNPCLNGGSCKDDINSYECWCPFGFEGKNCELNVTCNIKNGRCEQFCKNSADNKVVCSCTEGYRLAENQKSCEPAVPFPCGRVSVSQTSKLTR chain 2: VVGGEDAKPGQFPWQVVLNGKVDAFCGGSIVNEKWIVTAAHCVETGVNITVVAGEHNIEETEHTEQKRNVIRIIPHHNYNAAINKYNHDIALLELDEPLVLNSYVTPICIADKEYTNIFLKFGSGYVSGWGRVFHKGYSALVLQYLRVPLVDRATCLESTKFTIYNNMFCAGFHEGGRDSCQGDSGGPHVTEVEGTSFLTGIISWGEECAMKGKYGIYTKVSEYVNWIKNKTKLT", "kcat/KM": "1.6e+08 M⁻¹ s⁻¹"}
{"protein": "FIXa-K228N/K247N/N249S/R318Y/R338E/T343R/R403E/E410N (protein) chain 1: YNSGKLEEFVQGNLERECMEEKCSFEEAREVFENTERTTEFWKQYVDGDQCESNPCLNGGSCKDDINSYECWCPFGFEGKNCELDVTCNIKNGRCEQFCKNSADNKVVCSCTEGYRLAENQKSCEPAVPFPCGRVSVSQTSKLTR chain 2: VVGGEDAKPGQFPWQVVLNGKVDAFCGGSIVNEKWIVTAAHCVETGVNITVVAGEHNIEETEHTEQNRSVIRIIPHHNYNAAINKYNHDIALLELDEPLVLNSYVTPICIADKEYTNIFLKFGSGYVSGWGRVFHKGYSALVLQYLRVPLVDRATCLESTKFRIYNNMFCAGFHEGGRDSCQGDSGGPHVTEVEGTSFLTGIISWGEECAMKGKYGIYTKVSEYVNWIKNKTKLT", "kcat/KM": "4.1e+08 M⁻¹ s⁻¹"}
{"protein": "FIXa-K247N/N249S/R318Y/R338E/R403E/E410N (protein) chain 1: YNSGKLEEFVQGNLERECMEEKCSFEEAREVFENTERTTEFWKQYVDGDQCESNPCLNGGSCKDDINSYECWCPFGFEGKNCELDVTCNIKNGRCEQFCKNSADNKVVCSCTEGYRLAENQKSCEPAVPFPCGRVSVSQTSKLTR chain 2: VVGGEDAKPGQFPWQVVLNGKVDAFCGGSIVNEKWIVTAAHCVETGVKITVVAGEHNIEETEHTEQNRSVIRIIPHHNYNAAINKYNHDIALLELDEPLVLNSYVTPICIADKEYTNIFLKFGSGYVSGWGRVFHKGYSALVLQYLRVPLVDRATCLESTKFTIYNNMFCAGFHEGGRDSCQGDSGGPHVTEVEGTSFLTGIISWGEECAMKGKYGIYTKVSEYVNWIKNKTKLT", "kcat/KM": "1.5e+08 M⁻¹ s⁻¹"}
{"protein": "FIXa-R318Y/R338E/T343R/R403E/E410S (protein) chain 1: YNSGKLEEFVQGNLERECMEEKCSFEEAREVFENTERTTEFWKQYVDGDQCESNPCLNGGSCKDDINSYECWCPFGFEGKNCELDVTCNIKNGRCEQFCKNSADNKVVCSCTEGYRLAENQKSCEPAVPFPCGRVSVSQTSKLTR chain 2: VVGGEDAKPGQFPWQVVLNGKVDAFCGGSIVNEKWIVTAAHCVETGVKITVVAGEHNIEETEHTEQKRNVIRIIPHHNYNAAINKYNHDIALLELDEPLVLNSYVTPICIADKEYTNIFLKFGSGYVSGWGRVFHKGYSALVLQYLRVPLVDRATCLESTKFRIYNNMFCAGFHEGGRDSCQGDSGGPHVTEVEGTSFLTGIISWGEECAMKGKYGIYTKVSEYVNWIKSKTKLT", "kcat/KM": "4.4e+08 M⁻¹ s⁻¹"}
{"protein": "FIXa-D104N/K106S/N260S/R318Y/R338E/R403E/E410N (protein) chain 1: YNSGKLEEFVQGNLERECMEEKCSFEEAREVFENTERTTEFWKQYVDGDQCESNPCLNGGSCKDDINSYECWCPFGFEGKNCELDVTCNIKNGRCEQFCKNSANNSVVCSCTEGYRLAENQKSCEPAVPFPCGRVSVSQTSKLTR chain 2: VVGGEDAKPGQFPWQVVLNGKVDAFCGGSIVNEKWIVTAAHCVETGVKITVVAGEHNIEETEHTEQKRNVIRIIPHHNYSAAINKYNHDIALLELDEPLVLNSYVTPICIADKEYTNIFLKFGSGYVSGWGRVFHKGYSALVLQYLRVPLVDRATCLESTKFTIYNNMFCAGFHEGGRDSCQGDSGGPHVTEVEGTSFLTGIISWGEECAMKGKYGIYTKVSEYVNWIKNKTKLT", "kcat/KM": "8.8e+07 M⁻¹ s⁻¹"}
